- Test system: CCRF-CEM cancer cells - leukaemia
- experiment-notes: Fluorometric Microculture Cytotoxicity Assay (FMCA), CCRF-CEM
- Type: cell-based
- assay-context: Homo sapiens, 72 h incubation

- molecule: "c1cc(Nc2nccc(NCc3ccc4[nH]cnc4c3)n2)c2cc[nH]c2c1 [Example 19]"
  u: "µM"
  qualifier: "="
  EC50: 1.02
- molecule: "Cc1cc(NCc2ccc3[nH]ccc3c2)nc(NCCc2c[nH]c3ccc(O)cc23)n1 [Example 32]"
  u: "µM"
  qualifier: "="
  EC50: 7.81
- molecule: "Cc1nc(Nc2ncc(C(=O)Nc3c(C)cccc3Cl)s2)cc(N2CCN(CCO)CC2)n1 [Ref. 3, dasatinib, reference compound]"
  u: "µM"
  qualifier: "="
  EC50: 9.7
- molecule: "Cc1cc2cc(CNc3nccc(Nc4ccc5[nH]c(C)cc5c4)n3)ccc2[nH]1 [Example 63]"
  u: "µM"
  qualifier: "="
  EC50: 0.59
- molecule: "COC(=O)c1cc(Nc2nccc(NCc3ccc4[nH]ccc4c3)n2)c2cc[nH]c2c1 [Example 81]"
  u: "µM"
  qualifier: "<"
  EC50: 10
- molecule: "Nc1cnc(Nc2ccc3cc[nH]c3c2)nc1NCc1ccc2[nH]ccc2c1 [Example 40]"
  u: "µM"
  qualifier: "="
  EC50: 4.17
- molecule: "c1cc(Nc2nccc(NCc3ccc4cc[nH]c4c3)n2)c2cc[nH]c2c1 [Example 20]"
  u: "µM"
  qualifier: "="
  EC50: 1.01
- molecule: "Cc1cc2cc(Nc3nc(NCc4ccc5[nH]ccc5c4)cc(C(F)(F)F)n3)ccc2[nH]1 [Example 33]"
  u: "µM"
  qualifier: "="
  EC50: 9.55
- molecule: "FC(F)(F)c1cc(NCc2ccc3[nH]ccc3c2)nc(NCCc2c[nH]c3ccccc23)n1 [Example 35]"
  u: "µM"
  qualifier: "="
  EC50: 10.1
- molecule: "c1cc(Nc2ccc3[nH]ccc3c2)nc(NCc2ccc3[nH]ccc3c2)n1 [Example 82]"
  u: "µM"
  qualifier: "="
  EC50: 0.49
- molecule: "Cn1ccc2c(Nc3nccc(NCc4ccc5[nH]ccc5c4)n3)cccc21 [Example 75]"
  u: "µM"
  qualifier: "="
  EC50: 0.61
- molecule: "c1cc(NCc2ccc3[nH]ccc3c2)nc(Nc2ccc3[nH]ccc3c2)n1 [Example 2]"
  u: "µM"
  qualifier: "="
  EC50: 4.83
- molecule: "Oc1ccc2[nH]cc(CCNc3nccc(NCc4ccc5[nH]ccc5c4)n3)c2c1 [Example 10]"
  u: "µM"
  qualifier: "="
  EC50: 10.2
- molecule: "COc1ccc2[nH]cc(CCNc3nccc(NCc4ccc5[nH]ccc5c4)n3)c2c1 [Example 12]"
  u: "µM"
  qualifier: "="
  EC50: 0.76
- molecule: "CNC(=O)c1cc(Oc2ccc(NC(=O)Nc3ccc(Cl)c(C(F)(F)F)c3)cc2)ccn1 [Ref. 1, sorafenib, reference compound]"
  u: "µM"
  qualifier: "="
  EC50: 8.3
- molecule: "Nc1cnc(Nc2ccc3[nH]ccc3c2)nc1NCc1ccc2[nH]ccc2c1 [Example 39]"
  u: "µM"
  qualifier: "="
  EC50: 2.84
- molecule: "c1ccc2c(CCNc3nccc(NCc4ccc5[nH]ccc5c4)n3)c[nH]c2c1 [Example 9]"
  u: "µM"
  qualifier: "="
  EC50: 8.73
